system: corn (Zea mays); assay: Test C postemergence, visual plant response rating; format: in vivo; conditions: Test C, postemergence, 125 g ai/ha
Quick rule for you: Corn plant response rating (0 to 100 scale) under 10 gets true (1), anything else gets false (0).

molecule: CON=C(c1cccc(OC(F)F)c1)c1c(O)c(C)nn(C)c1=O [Compound 202]
target_under_test: corn (Zea mays)
assigned_label: true (1)
--
molecule: CON=C(c1cccc(OC)c1)c1c(O)c(C)nn(C)c1=O [Compound 204]
target_under_test: corn (Zea mays)
assigned_label: true (1)
--
molecule: C#CCO/N=C(\c1ccc(F)c(Br)c1)c1c(O)c(C)nn(C)c1=O [Compound 164]
target_under_test: corn (Zea mays)
assigned_label: false (0)
--
molecule: CON=C(c1cc(Cl)cc(Cl)c1F)c1c(O)c(C)nn(C)c1=O [Compound 153]
target_under_test: corn (Zea mays)
assigned_label: false (0)
--
molecule: CCO/N=C(/c1c(O)c(Cl)nn(C)c1=O)c1ccc(F)c2ccccc12 [Compound 211]
target_under_test: corn (Zea mays)
assigned_label: false (0)

INPUT: Given the entry C#CCON=C(c1cccc(OC(F)F)c1)c1c(O)c(C)nn(C)c1=O [Compound 201] , would its reported Corn plant response rating (0 to 100 scale) be below 10?
OUTPUT: true (1)
